All figures here come from ChEMBL document CHEMBL5126606.

# EXPERIMENTAL TARGET: Sodium/glucose cotransporter 2 (Homo sapiens, UniProt P31639)
# Sequence (P31639 whole entry): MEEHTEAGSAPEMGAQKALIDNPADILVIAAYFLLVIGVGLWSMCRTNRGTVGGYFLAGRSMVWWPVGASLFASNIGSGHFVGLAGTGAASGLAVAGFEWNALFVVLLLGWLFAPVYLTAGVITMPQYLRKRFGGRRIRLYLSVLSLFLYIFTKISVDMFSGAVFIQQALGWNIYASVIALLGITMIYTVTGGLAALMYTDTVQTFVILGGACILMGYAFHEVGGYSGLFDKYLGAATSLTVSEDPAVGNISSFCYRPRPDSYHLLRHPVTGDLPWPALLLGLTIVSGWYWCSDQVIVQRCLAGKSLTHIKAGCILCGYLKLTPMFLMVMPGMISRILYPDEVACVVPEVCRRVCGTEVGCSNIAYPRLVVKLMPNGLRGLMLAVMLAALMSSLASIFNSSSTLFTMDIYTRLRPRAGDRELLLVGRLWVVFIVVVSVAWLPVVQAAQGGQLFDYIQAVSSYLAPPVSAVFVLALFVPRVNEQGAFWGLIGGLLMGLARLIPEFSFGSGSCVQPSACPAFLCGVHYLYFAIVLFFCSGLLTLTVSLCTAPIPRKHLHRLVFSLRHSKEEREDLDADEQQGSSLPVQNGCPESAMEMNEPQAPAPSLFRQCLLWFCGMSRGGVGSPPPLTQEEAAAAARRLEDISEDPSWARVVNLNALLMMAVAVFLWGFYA
# ASSAY PROTOCOL: Inhibition of recombinant human SGLT2 expressed in COS-7 cells assessed as inhibition of [14C]AMG uptake
# Assay type: cell-based
OBSERVED PROPERTY: pKi
Bear in mind: pKi is minus log10 of a mol/L concentration; give just that figure.

Item under review: `Cc1cc(OCCCNCCC(N)=O)ccc1Cc1c(O[C@@H]2O[C@H](CO)[C@@H](O)[C@H](O)[C@H]2O)n[nH]c1C(C)C` . Reported pKi?
4.87

* * *

# EXPERIMENTAL TARGET: Sodium/glucose cotransporter 2 (Homo sapiens)
# ASSAY PROTOCOL: Inhibition of human SGLT2
OBSERVED PROPERTY: IC50 (nM)
Field: numeric (nM). Do not append units.

Item under review: `CCOc1ccc(Cc2cc([C@H]3O[C@@H](SC)[C@H](O)[C@@H](O)[C@@H]3O)ccc2Cl)cc1` . Reported IC50?
1.8

* * *

# ASSAY PROTOCOL: Oral bioavailability in C57BL/6J mouse at 10 mg/kg measured upto 24 hrs by LC-MS/MS analysis
# Type: ADME, organism-based
# PARTICULARS: in vivo
OBSERVED PROPERTY: bioavailability (%)
Field: numeric (%). Do not append units.

Item under review: `COc1ccc(Cc2cc([C@H]3O[C@@H](SC)[C@H](O)[C@@H](O)[C@@H]3O)ccc2Cl)cc1` . Reported bioavailability?
87
